Sourced from paper PMC10218941

target: EGFR (Homo sapiens, UniProt P00533); construct: 645–1186); His6 (N); made in house; host or cells: Sf-9 insect cells (baculovirus; pBlueBacHis2B / pFASTBacHTc; test: EGFR inhibitory assay; format: biochemical; settings: read-out: EGFR Inhibition IC50 ± SEM
Sequence (P00533 669-1210): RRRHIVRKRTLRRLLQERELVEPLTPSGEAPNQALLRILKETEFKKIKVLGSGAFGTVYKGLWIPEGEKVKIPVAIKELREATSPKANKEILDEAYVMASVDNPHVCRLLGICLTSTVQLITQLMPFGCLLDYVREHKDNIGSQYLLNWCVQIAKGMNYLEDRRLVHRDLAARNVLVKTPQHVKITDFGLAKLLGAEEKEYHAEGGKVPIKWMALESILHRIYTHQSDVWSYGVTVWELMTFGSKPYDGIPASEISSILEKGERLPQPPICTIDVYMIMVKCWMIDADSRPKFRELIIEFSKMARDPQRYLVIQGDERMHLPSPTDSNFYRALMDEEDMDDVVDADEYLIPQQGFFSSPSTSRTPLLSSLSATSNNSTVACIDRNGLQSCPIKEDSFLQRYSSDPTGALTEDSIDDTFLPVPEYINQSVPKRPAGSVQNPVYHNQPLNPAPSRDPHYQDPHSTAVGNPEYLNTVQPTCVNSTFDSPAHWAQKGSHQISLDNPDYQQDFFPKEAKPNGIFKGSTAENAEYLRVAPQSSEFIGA
pIC50: −log10 of the molar value.

>  <COMPOUND>
COc1ccc(C2CC(c3ccc(NC(=O)COc4ccc(C5=NNC(c6ccc(OC)c(OC)c6)C5)cc4)cc3)=NN2)cc1 (stereo not shown)

>  <SYSTEM_NAME>
EGFR (Homo sapiens, UniProt P00533)

>  <pIC50>
7.06

$$$$
>  <COMPOUND>
COc1ccc(C2CC(c3ccc(OCC(=O)Nc4ccc(C5=NNC(c6ccc(Br)cc6)C5)cc4)cc3)=NN2)cc1 (stereo not shown)

>  <SYSTEM_NAME>
EGFR (Homo sapiens, UniProt P00533)

>  <pIC50>
6.98

$$$$
>  <COMPOUND>
COc1ccc(C2CC(c3ccc(OCC(=O)Nc4ccc(C5=NNC(c6ccc(OC)c(OC)c6)C5)cc4)cc3)=NN2)cc1 (stereo not shown)

>  <SYSTEM_NAME>
EGFR (Homo sapiens, UniProt P00533)

>  <pIC50>
7.09

$$$$
>  <COMPOUND>
COc1ccc(C2CC(c3ccc(OCC(=O)Nc4ccc(C5=NNC(c6ccc(Cl)cc6)C5)cc4)cc3)=NN2)cc1 (stereo not shown)

>  <SYSTEM_NAME>
EGFR (Homo sapiens, UniProt P00533)

>  <pIC50>
7.03

$$$$
